# Species: Rattus norvegicus
# Measurement Notes: DrugMatrix - Regimen: Daily Repeat
# Assay type: toxicity, organism-based, Sprague-Dawley
# Design: regimen Daily Repeat, gender Male, age 6-8 weeks
# Condition Notes: in vivo, po, 0 mg/kg, 72 h, tissue Blood, route oral GAVAGE, dose level Control, time 3 day, vehicle .5 % CMC
For each record, write down the corresponding MEAN CORPUSCULAR VOLUME.
Record the value in fL, omitting the unit from your answer.

Kindly indicate its recorded MEAN CORPUSCULAR VOLUME. Item: Cc1ccc2cc3c(ccc4ccccc43)c3c2c1CC3
64.45

Kindly indicate its recorded MEAN CORPUSCULAR VOLUME. Item: COc1nc(C)nc(Cl)c1N=C1NCCN1
63.27

Kindly indicate its recorded MEAN CORPUSCULAR VOLUME. Item: CCCN1C[C@H](CSC)C[C@@H]2c3cccc4[nH]cc(c34)C[C@H]21 [PERGOLIDE]
63.4

Kindly indicate its recorded MEAN CORPUSCULAR VOLUME. Item: Nc1ccn([C@H]2CC[C@@H](CO)O2)c(=O)n1
59.93

Kindly indicate its recorded MEAN CORPUSCULAR VOLUME. Item: CN1CCN(CCCN2c3ccccc3Sc3ccc(Cl)cc32)CC1
63.88

Kindly indicate its recorded MEAN CORPUSCULAR VOLUME. Item: Cc1ccc(/N=C/N(C)/C=N/c2ccc(C)cc2C)c(C)c1
63.52

Kindly indicate its recorded MEAN CORPUSCULAR VOLUME. Item: ClC(Cl)Br
61.4

Kindly indicate its recorded MEAN CORPUSCULAR VOLUME. Item: CCCCc1oc2ccccc2c1C(=O)c1cc(I)c(OCCN(CC)CC)c(I)c1
59.76

Kindly indicate its recorded MEAN CORPUSCULAR VOLUME. Item: O=C(CCCN1CC=C(n2c(=O)[nH]c3ccccc32)CC1)c1ccc(F)cc1
64.22

====

For each record, write down the corresponding ABSOLUTE EOSINOPHIL.
# Species: Rattus norvegicus
# Measurement Notes: DrugMatrix - Regimen: Daily Repeat
# Type: toxicity, organism-based, Sprague-Dawley
# Parameters: regimen Daily Repeat, gender Male, age 6-8 weeks
# Condition Notes: in vivo, po, 0 mg/kg, 120 h, tissue Blood, route oral GAVAGE, dose level Control, time 5 day, vehicle 100 % WATER
Record the value in CELLS/uL, omitting the unit from your answer.

Kindly indicate its recorded ABSOLUTE EOSINOPHIL. Item: CN(C)CCCN1c2ccccc2Sc2ccc(Cl)cc21
0

Kindly indicate its recorded ABSOLUTE EOSINOPHIL. Item: C=CCC1(C(C)CCC)C(=O)NC(=O)NC1=O (centres undefined)
31.17

Kindly indicate its recorded ABSOLUTE EOSINOPHIL. Item: NCCCCCC(=O)O
21

Kindly indicate its recorded ABSOLUTE EOSINOPHIL. Item: c1ccc([C@H]2CN3CCSC3=N2)cc1
22.83

====

# Species on record: Rattus norvegicus
# Measurement Notes: DrugMatrix - Regimen: Daily Repeat
# Format: toxicity, organism-based, Sprague-Dawley
# Set-up: regimen Daily Repeat, gender Male, age 6-8 weeks
# Condition Notes: in vivo, iv, 0 mg/kg, 72 h, tissue Plasma, dose level Control, time 3 day, vehicle 100 % SALINE
Starred links: 1 amine or outer side, 2 acyl side, 3 side chain; linkers in the order of their positions; H or OH if unused. Positions of bridges follow the written chain, without caps; N, C: chain ends. Non-standard residues stand in square brackets, D forms with d. Residues, ends and D or L forms follow the SMILES beside them. Chains are numbered I, II in the order given. Actinocin(9to1) = Cc1c2oc3c(C)ccc(C(=O)[*:1])c3nc-2c(C(=O)[*:2])c(N)c1=O; NMeV = CN[C@H](C(=O)O)C(C)C; Sar = CNCC(=O)O
Assay Metric: LACTATE DEHYDROGENASE (u/L)
Record the value in u/L, omitting the unit from your answer.

Kindly indicate its recorded LACTATE DEHYDROGENASE. Item: Cc1c2oc3c(C)ccc(C(=O)N[C@@H]4C(=O)N[C@H](C(C)C)C(=O)N5CCC[C@H]5C(=O)N(C)CC(=O)N(C)[C@@H](C(C)C)C(=O)O[C@@H]4C)c3nc-2c(C(=O)N[C@@H]2C(=O)N[C@H](C(C)C)C(=O)N3CCC[C@H]3C(=O)N(C)CC(=O)N(C)[C@@H](C(C)C)C(=O)O[C@@H]2C)c(N)c1=O [DACTINOMYCIN] (I: T[dV]P[Sar][NMeV] / II: T[dV]P[Sar][NMeV]; ester I:1-I:C, II:1-II:C; linker I:N-II:N via Actinocin(9to1))
269.33

====

# Organism: Rattus norvegicus
# Measurement Notes: DrugMatrix - Regimen: Daily Repeat
# Assay type: toxicity, organism-based, Sprague-Dawley
# Parameters: regimen Daily Repeat, gender Male, age 6-8 weeks
# Condition Notes: in vivo, po, 0 mg/kg, 120 h, tissue Plasma, route oral GAVAGE, dose level Control, time 5 day, vehicle .5 % CMC
For each record, write down the corresponding CARBON DIOXIDE.

Kindly indicate its recorded CARBON DIOXIDE. Item: CN1CCN(CCCN2c3ccccc3Sc3ccc(Cl)cc32)CC1 [PROCHLORPERAZINE]
30.17 mmol/L

Kindly indicate its recorded CARBON DIOXIDE. Item: CCCN1C[C@H](CSC)C[C@@H]2c3cccc4[nH]cc(c34)C[C@H]21 [PERGOLIDE]
28.67 mmol/L

Kindly indicate its recorded CARBON DIOXIDE. Item: CC(C)(C)NC(=O)[C@@H]1C[C@@H]2CCCC[C@@H]2CN1C[C@@H](O)[C@H](Cc1ccccc1)NC(=O)[C@H](CC(N)=O)NC(=O)c1ccc2ccccc2n1
27.5 mmol/L

Kindly indicate its recorded CARBON DIOXIDE. Item: Cc1ccc(/N=C/N(C)/C=N/c2ccc(C)cc2C)c(C)c1 [AMITRAZ]
30.33 mmol/L

====

# Organism: Rattus norvegicus
# Measurement Notes: DrugMatrix - Regimen: Daily Repeat
# Format: toxicity, organism-based, Sprague-Dawley
# Parameters: regimen Daily Repeat, gender Male, age 6-8 weeks
# Condition Notes: in vivo, po, 0 mg/kg, 120 h, tissue Blood, route oral GAVAGE, dose level Control, time 5 day, vehicle 100 % WATER
For each record, write down the corresponding LYMPHOCYTE.
Record the value in %, omitting the unit from your answer.

Kindly indicate its recorded LYMPHOCYTE. Item: N[C@@H](Cc1ccc(O)c(O)c1)C(=O)O
89.83

Kindly indicate its recorded LYMPHOCYTE. Item: CNNCc1ccc(C(=O)NC(C)C)cc1
92.67

Kindly indicate its recorded LYMPHOCYTE. Item: C[C@](N)(Cc1ccc(O)c(O)c1)C(=O)O
87.5

Kindly indicate its recorded LYMPHOCYTE. Item: Nc1c2c(nc3ccccc13)CCCC2
83

Kindly indicate its recorded LYMPHOCYTE. Item: NCCCCCC(=O)O
92

Kindly indicate its recorded LYMPHOCYTE. Item: CN(C)CCCN1c2ccccc2Sc2ccc(Cl)cc21
89.67

====

For each record, write down the corresponding BLOOD UREA NITROGEN.
# Organism: Rattus norvegicus
# Measurement Notes: DrugMatrix - Regimen: Daily Repeat
# Format: toxicity, organism-based, Sprague-Dawley
# Set-up: regimen Daily Repeat, gender Male, age 6-8 weeks
# Condition Notes: in vivo, iv, 0 mg/kg, 72 h, tissue Plasma, dose level Control, time 3 day, vehicle 100 % SALINE
Starred links: 1 amine or outer side, 2 acyl side, 3 side chain; linkers in the order of their positions; H or OH if unused. Positions of bridges follow the written chain, without caps; N, C: chain ends. Non-standard residues stand in square brackets, D forms with d. Residues, ends and D or L forms follow the SMILES beside them. Chains are numbered I, II in the order given. Actinocin(9to1) = Cc1c2oc3c(C)ccc(C(=O)[*:1])c3nc-2c(C(=O)[*:2])c(N)c1=O; NMeV = CN[C@H](C(=O)O)C(C)C; Sar = CNCC(=O)O
Record the value in mg/dL, omitting the unit from your answer.

Kindly indicate its recorded BLOOD UREA NITROGEN. Item: Cc1c2oc3c(C)ccc(C(=O)N[C@@H]4C(=O)N[C@H](C(C)C)C(=O)N5CCC[C@H]5C(=O)N(C)CC(=O)N(C)[C@@H](C(C)C)C(=O)O[C@@H]4C)c3nc-2c(C(=O)N[C@@H]2C(=O)N[C@H](C(C)C)C(=O)N3CCC[C@H]3C(=O)N(C)CC(=O)N(C)[C@@H](C(C)C)C(=O)O[C@@H]2C)c(N)c1=O [DACTINOMYCIN] (I: T[dV]P[Sar][NMeV] / II: T[dV]P[Sar][NMeV]; ester I:1-I:C, II:1-II:C; linker I:N-II:N via Actinocin(9to1))
14.83

Kindly indicate its recorded BLOOD UREA NITROGEN. Item: COc1cc2c3cc1Oc1cc(ccc1O)C[C@@H]1c4c(cc(OC)c(O)c4Oc4ccc(cc4)C[C@@H]3N(C)CC2)CC[N+]1(C)C.[Cl-]
16.83

Kindly indicate its recorded BLOOD UREA NITROGEN. Item: Cc1ccc(N(CC2=NCCN2)c2cccc(O)c2)cc1 [PHENTOLAMINE]
17

Kindly indicate its recorded BLOOD UREA NITROGEN. Item: CC[C@]1(O)C[C@H]2CN(CCc3c([nH]c4ccccc34)[C@@](C(=O)OC)(c3cc4c(cc3OC)N(C=O)[C@H]3[C@@](O)(C(=O)OC)[C@H](OC(C)=O)[C@]5(CC)C=CCN6CC[C@]43[C@@H]65)C2)C1 [VINCRISTINE]
15.17
